Could you please report measured PBM binding z-score for the items listed next?
tested on: THRa homodimer (NR concentration 90 nM); test: PBM binding z-score (relative to random genomic background probes); higher = stronger binding; sequences stand for … in GC…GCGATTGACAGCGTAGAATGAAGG
One number for each entry.

Reference set, count: 5
monomer_sequence | target_system | PBM binding z-score
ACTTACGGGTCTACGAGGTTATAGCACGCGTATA | THRa homodimer (NR concentration 90 nM) | 0.82
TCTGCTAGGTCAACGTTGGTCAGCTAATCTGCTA | THRa homodimer (NR concentration 90 nM) | 0.755
TAGCCTAGGTCATTCAGGGGCCAGCATAGAAAGC | THRa homodimer (NR concentration 90 nM) | 0.61
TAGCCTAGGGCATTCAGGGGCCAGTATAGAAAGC | THRa homodimer (NR concentration 90 nM) | -0.586
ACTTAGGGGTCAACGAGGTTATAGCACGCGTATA | THRa homodimer (NR concentration 90 nM) | 1.8

// each listed sequence needs a value for PBM binding z-score
1. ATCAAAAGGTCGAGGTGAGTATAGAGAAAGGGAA
2. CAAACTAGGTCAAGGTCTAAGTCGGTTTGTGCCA

1: 1.26; 2: 1.57

# return PBM binding z-score for each item in the list
1. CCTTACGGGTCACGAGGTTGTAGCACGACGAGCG
2. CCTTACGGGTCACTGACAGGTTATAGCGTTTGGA
3. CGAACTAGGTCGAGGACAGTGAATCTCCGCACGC
4. CAAAATAGGTCAAAGGTCAAAGTCGAGCCAACCA
5. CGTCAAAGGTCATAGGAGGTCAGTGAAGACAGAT
6. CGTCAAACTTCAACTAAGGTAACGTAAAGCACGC

1. 0.351
2. 0.417
3. 1.45
4. 1.18
5. 1.85
6. 1.98

// input: 5 sequences below; output: PBM binding z-score for each
1. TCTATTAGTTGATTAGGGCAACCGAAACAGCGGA
2. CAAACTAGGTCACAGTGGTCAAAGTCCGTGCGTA
3. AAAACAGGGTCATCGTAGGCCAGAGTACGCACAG
4. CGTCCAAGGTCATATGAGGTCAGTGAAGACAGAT
5. ATATGTAGGTCAAGGGTCATTCAGGTTGGTTCGC

1: 0.563; 2: 1.43; 3: 1.58; 4: 4.58; 5: 2.22

// each sequence listed below needs its PBM binding z-score
1. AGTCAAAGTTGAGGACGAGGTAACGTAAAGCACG
2. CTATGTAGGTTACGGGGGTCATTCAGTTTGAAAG
3. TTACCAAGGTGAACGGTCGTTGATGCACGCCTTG
4. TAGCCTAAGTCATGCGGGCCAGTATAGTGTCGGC
5. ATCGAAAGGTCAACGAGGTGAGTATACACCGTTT
6. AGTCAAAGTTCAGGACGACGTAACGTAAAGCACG
7. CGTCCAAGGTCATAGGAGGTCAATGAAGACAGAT
8. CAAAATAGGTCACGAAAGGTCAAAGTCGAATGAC

1: 1.96; 2: 2.03; 3: 0.872; 4: -0.848; 5: 1.96; 6: 0.216; 7: 3.89; 8: 1.51
